Tested on: COR-L 105
Assay: relative viability (nuclei count vs DMSO), 5 days (fraction); higher = more cells survive
Conditions: first compound 4 µM
Entries annotated with measured relative viability
QUANTITY_NAME: relative viability

>  <COMPOUND>
COc1cc(N2CCC(C(N)=O)CC2)ccc1Nc1nc(N)c(Cl)c(Nc2ccccc2S(=O)(=O)C(C)C)n1 [HG-5-88-01] + Nc1nc2[nH]cc(CCc3ccc(C(=O)N[C@@H](CCC(=O)O)C(=O)O)cc3)c2c(=O)[nH]1 [Pemetrexed] (partner 0.2 µM)

>  <TARGET_ENTITY>
COR-L 105

>  <ASSAY_VALUE>
0.899

$$$$
>  <COMPOUND>
COc1cc(N2CCC(C(N)=O)CC2)ccc1Nc1nc(N)c(Cl)c(Nc2ccccc2S(=O)(=O)C(C)C)n1 [HG-5-88-01] + CC1(C)CCC(c2ccc(Cl)cc2)=C(CN2CCN(c3ccc(C(=O)NS(=O)(=O)c4ccc(N[C@H](CCN5CCOCC5)CSc5ccccc5)c(S(=O)(=O)C(F)(F)F)c4)cc3)CC2)C1 [Navitoclax] (partner 0.5 µM)

>  <TARGET_ENTITY>
COR-L 105

>  <ASSAY_VALUE>
0.809

$$$$
>  <COMPOUND>
C[C@@H]1CN(CC(=O)Nc2ccc3c(c2)Cc2cccc(-c4cc(=O)cc(N5CCOCC5)o4)c2S3)C[C@H](C)O1 + Cc1nc(Nc2ncc(C(=O)Nc3c(C)cccc3Cl)s2)cc(N2CCN(CCO)CC2)n1 [Dasatinib] (partner 0.075 µM)

>  <TARGET_ENTITY>
COR-L 105

>  <ASSAY_VALUE>
0.336

$$$$
>  <COMPOUND>
COc1cc(N2CCC(C(N)=O)CC2)ccc1Nc1nc(N)c(Cl)c(Nc2ccccc2S(=O)(=O)C(C)C)n1 [HG-5-88-01] + O=C(c1cc(Cc2n[nH]c(=O)c3ccccc23)ccc1F)N1CCN(C(=O)C2CC2)CC1 [Olaparib] (partner 8 µM)

>  <TARGET_ENTITY>
COR-L 105

>  <ASSAY_VALUE>
0.683

$$$$

Source listed as the supplement of paper PMC10307832.
